# system: MAPK10 (human)
# experimental.protocol: KINOMEscan competition binding
# condition: compound 10.0 µM
measure: kinase still bound, per cent of control (%)
Value expressed in %; do not type the unit.

Sample records with kinase still bound, per cent of control:
smiles_record=CCN1CCN(Cc2ccc(NC(=O)c3ccc(C)c(Oc4ccnc5[nH]ccc45)c3)cc2C(F)(F)F)CC1 measure="kinase still bound, per cent of control" quantitative_result=12
smiles_record=COc1cc(N2CCC(N3CCN(C)CC3)CC2)ccc1Nc1ncc(Cl)c(Nc2ccccc2S(=O)(=O)C(C)C)n1 measure="kinase still bound, per cent of control" quantitative_result=2.6
smiles_record=CCOc1cc(N2CCC(N3CCCCC3)CC2)ccc1Nc1nc(Nc2ccccc2S(=O)(=O)C(C)C)c2cn[nH]c2n1 measure="kinase still bound, per cent of control" quantitative_result=7.2

Alright, here's another molecule for you.
// fetch kinase still bound, per cent of control; item: CCN1CCN(Cc2ccc(NC(=O)c3ccc(C)c(/C=C/c4cnc(Nc5cc(N6CCNCC6)nc(C)n5)cn4)c3)cc2C(F)(F)F)CC1 ; system: MAPK10 (human)
54

* * *

This listing pairs molecules with measured kinase still bound, per cent of control.
# system: CDKL2 (human) (UniProt Q92772)
# Sequence (Q92772 whole entry, looked up): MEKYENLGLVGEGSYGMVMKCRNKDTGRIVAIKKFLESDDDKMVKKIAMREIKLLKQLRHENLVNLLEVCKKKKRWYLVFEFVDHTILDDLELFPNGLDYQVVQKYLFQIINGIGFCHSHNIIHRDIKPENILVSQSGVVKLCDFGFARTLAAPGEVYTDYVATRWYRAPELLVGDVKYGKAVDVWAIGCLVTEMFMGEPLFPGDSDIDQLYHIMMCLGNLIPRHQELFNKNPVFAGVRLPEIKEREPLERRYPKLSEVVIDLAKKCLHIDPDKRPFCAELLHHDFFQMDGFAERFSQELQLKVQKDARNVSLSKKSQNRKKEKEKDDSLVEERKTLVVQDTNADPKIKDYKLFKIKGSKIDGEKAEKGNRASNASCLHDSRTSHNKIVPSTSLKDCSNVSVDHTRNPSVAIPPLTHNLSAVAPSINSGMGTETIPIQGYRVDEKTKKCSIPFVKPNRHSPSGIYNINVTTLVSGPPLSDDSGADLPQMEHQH
# experimental.protocol: KINOMEscan competition binding
# condition: compound 10.0 µM
State the answer as a number, implicitly in %.

Past entries and their recorded results:
smiles_record=CCOc1cc(N2CCC(N3CCCCC3)CC2)ccc1Nc1nc(Nc2ccccc2S(=O)(=O)C(C)C)c2cn[nH]c2n1 measure="kinase still bound, per cent of control" quantitative_result=91
smiles_record=CCN1CCN(Cc2ccc(NC(=O)c3ccc(C)c(/C=C/c4cnc(Nc5cc(N6CCNCC6)nc(C)n5)cn4)c3)cc2C(F)(F)F)CC1 measure="kinase still bound, per cent of control" quantitative_result=0.15
smiles_record=COc1cc(N2CCC(N3CCN(C)CC3)CC2)ccc1Nc1ncc(Cl)c(Nc2ccccc2S(=O)(=O)C(C)C)n1 measure="kinase still bound, per cent of control" quantitative_result=40

Please report kinase still bound, per cent of control for the following molecule: CCN1CCN(Cc2ccc(NC(=O)c3ccc(C)c(Oc4ccnc5[nH]ccc45)c3)cc2C(F)(F)F)CC1
0.9

* * *

# system: STK38L (human)
# experimental.protocol: KINOMEscan competition binding
# condition: compound 10.0 µM
Overview of reported kinase still bound, per cent of control across a group of compounds:
Write the numeric value and follow it with the unit.

smiles_record=COc1cc(N2CCC(N3CCN(C)CC3)CC2)ccc1Nc1ncc(Cl)c(Nc2ccccc2S(=O)(=O)C(C)C)n1 measure="kinase still bound, per cent of control" result=7.3%
smiles_record=CCN1CCN(Cc2ccc(NC(=O)c3ccc(C)c(Oc4ccnc5[nH]ccc45)c3)cc2C(F)(F)F)CC1 measure="kinase still bound, per cent of control" result=6.8%
smiles_record=CCN1CCN(Cc2ccc(NC(=O)c3ccc(C)c(/C=C/c4cnc(Nc5cc(N6CCNCC6)nc(C)n5)cn4)c3)cc2C(F)(F)F)CC1 measure="kinase still bound, per cent of control" result=84%

Now look at this one.
Input CCOc1cc(N2CCC(N3CCCCC3)CC2)ccc1Nc1nc(Nc2ccccc2S(=O)(=O)C(C)C)c2cn[nH]c2n1 , output reported kinase still bound, per cent of control.
100%

* * *

# system: UniProt:P08631
# Sequence (P08631 whole entry, looked up): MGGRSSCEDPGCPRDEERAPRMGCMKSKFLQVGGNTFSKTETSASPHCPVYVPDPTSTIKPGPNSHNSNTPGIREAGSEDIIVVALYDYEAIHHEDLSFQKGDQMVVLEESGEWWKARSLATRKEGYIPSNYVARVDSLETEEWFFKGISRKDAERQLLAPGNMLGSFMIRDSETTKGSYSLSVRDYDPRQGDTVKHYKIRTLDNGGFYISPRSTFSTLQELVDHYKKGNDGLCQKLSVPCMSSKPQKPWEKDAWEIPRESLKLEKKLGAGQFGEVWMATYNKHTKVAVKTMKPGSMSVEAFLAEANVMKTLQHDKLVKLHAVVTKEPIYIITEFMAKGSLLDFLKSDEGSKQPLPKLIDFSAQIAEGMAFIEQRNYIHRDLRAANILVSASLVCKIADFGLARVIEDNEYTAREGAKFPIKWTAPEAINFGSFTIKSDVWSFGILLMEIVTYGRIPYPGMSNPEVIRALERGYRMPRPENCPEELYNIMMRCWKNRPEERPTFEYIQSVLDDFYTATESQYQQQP
# experimental.protocol: KINOMEscan competition binding
# condition: compound 10.0 µM
measure: kinase still bound, per cent of control
Please state the value followed by its unit.

Please list kinase still bound, per cent of control recorded for the compound CCN1CCN(Cc2ccc(NC(=O)c3ccc(C)c(/C=C/c4cnc(Nc5cc(N6CCNCC6)nc(C)n5)cn4)c3)cc2C(F)(F)F)CC1
0.4%

Return kinase still bound, per cent of control (reported value) for this compound: CCN1CCN(Cc2ccc(NC(=O)c3ccc(C)c(Oc4ccnc5[nH]ccc45)c3)cc2C(F)(F)F)CC1
0.4%

Give a short answer stating reported kinase still bound, per cent of control for CCOc1cc(N2CCC(N3CCCCC3)CC2)ccc1Nc1nc(Nc2ccccc2S(=O)(=O)C(C)C)c2cn[nH]c2n1 .
100%

Report measured kinase still bound, per cent of control; entry is COc1cc(N2CCC(N3CCN(C)CC3)CC2)ccc1Nc1ncc(Cl)c(Nc2ccccc2S(=O)(=O)C(C)C)n1
0.35%

* * *

Each entry below carries its reported kinase still bound, per cent of control.
# system: FLT4 (human) (UniProt P35916)
# Sequence (P35916 whole entry, looked up): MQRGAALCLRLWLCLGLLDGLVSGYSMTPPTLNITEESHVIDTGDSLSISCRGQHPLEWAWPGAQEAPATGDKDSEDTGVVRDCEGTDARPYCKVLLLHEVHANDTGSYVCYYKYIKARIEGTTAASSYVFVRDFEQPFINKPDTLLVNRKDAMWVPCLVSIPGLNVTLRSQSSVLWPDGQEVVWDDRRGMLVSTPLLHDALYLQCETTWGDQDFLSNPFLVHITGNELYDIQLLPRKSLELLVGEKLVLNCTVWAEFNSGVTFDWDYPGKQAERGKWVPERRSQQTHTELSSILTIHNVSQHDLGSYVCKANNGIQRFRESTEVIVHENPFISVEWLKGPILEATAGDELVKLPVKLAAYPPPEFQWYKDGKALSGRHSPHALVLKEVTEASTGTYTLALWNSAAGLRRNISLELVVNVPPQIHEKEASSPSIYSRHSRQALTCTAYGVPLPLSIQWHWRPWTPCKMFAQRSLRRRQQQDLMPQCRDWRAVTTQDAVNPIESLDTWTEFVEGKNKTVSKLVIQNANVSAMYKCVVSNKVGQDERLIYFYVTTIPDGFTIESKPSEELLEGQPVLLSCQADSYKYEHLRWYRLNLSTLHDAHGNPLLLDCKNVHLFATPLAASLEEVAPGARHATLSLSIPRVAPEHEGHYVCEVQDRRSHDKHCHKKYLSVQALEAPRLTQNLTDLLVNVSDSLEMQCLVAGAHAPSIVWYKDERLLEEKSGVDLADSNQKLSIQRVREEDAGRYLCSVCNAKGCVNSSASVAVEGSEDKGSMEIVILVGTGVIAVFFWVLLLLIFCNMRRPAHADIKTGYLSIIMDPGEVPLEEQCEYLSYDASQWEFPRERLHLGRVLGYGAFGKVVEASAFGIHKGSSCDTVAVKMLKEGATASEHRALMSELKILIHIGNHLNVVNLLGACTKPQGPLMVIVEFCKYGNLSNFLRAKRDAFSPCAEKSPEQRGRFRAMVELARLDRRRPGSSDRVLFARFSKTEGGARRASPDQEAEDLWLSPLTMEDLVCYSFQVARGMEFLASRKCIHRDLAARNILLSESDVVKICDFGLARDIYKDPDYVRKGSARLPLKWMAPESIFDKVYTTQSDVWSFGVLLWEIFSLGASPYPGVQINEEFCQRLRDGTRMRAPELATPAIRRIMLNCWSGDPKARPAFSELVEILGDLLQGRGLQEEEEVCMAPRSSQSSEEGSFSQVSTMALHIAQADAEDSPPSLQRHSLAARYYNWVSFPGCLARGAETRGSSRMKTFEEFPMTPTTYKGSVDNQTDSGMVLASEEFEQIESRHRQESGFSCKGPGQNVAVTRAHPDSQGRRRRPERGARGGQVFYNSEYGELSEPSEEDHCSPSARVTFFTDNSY
# experimental.protocol: KINOMEscan competition binding
# condition: compound 10.0 µM
Report the value in % with no unit label.

The examples below pair each entry with its known result.
smiles_record=CCOc1cc(N2CCC(N3CCCCC3)CC2)ccc1Nc1nc(Nc2ccccc2S(=O)(=O)C(C)C)c2cn[nH]c2n1 measure="kinase still bound, per cent of control" quantitative_result=100
smiles_record=CCN1CCN(Cc2ccc(NC(=O)c3ccc(C)c(Oc4ccnc5[nH]ccc45)c3)cc2C(F)(F)F)CC1 measure="kinase still bound, per cent of control" quantitative_result=0.2
smiles_record=COc1cc(N2CCC(N3CCN(C)CC3)CC2)ccc1Nc1ncc(Cl)c(Nc2ccccc2S(=O)(=O)C(C)C)n1 measure="kinase still bound, per cent of control" quantitative_result=0.05

# evaluate next
Quote kinase still bound, per cent of control reported for CCN1CCN(Cc2ccc(NC(=O)c3ccc(C)c(/C=C/c4cnc(Nc5cc(N6CCNCC6)nc(C)n5)cn4)c3)cc2C(F)(F)F)CC1 please.
26

* * *

# system: JAK3 JH1 catalytic (human) (UniProt P52333)
# Sequence (P52333 whole entry, looked up): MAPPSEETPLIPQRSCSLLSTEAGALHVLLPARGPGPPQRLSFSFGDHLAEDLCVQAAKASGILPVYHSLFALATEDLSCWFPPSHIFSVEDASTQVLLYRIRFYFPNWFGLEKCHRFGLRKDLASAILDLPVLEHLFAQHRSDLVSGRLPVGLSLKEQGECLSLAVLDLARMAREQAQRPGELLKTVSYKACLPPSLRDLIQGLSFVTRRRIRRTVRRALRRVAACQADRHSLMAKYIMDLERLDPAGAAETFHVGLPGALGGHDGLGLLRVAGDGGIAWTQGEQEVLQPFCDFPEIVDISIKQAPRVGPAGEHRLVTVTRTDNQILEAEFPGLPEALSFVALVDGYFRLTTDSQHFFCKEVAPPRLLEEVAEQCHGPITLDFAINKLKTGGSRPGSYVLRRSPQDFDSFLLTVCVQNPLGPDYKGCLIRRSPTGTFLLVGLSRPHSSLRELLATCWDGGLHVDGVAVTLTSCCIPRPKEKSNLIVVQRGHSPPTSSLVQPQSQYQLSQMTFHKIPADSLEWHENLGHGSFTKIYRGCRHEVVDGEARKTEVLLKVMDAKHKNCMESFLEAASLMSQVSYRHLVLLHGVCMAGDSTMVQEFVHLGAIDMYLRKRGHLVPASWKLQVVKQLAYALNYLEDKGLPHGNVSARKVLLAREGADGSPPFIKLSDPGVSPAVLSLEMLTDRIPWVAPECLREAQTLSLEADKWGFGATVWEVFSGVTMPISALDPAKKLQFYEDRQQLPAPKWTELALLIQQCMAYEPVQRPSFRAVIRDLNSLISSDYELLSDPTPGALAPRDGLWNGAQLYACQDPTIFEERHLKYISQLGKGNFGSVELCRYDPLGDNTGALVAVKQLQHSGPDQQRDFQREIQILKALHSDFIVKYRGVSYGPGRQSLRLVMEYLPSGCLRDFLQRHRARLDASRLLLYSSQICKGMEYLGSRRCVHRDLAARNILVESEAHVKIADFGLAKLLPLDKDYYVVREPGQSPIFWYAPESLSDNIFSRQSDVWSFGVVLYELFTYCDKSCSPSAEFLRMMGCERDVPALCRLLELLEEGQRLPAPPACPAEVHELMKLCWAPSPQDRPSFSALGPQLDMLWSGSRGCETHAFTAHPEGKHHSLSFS
# experimental.protocol: KINOMEscan competition binding
# condition: compound 10.0 µM
measure: kinase still bound, per cent of control (%)
Just the number please, in %, no unit attached.

See these solved cases before continuing.
smiles_record=CCN1CCN(Cc2ccc(NC(=O)c3ccc(C)c(Oc4ccnc5[nH]ccc45)c3)cc2C(F)(F)F)CC1 measure="kinase still bound, per cent of control" quantitative_result=11
smiles_record=CCN1CCN(Cc2ccc(NC(=O)c3ccc(C)c(/C=C/c4cnc(Nc5cc(N6CCNCC6)nc(C)n5)cn4)c3)cc2C(F)(F)F)CC1 measure="kinase still bound, per cent of control" quantitative_result=3.2
smiles_record=COc1cc(N2CCC(N3CCN(C)CC3)CC2)ccc1Nc1ncc(Cl)c(Nc2ccccc2S(=O)(=O)C(C)C)n1 measure="kinase still bound, per cent of control" quantitative_result=2

API: the following record is the query input.
State its kinase still bound, per cent of control: CCOc1cc(N2CCC(N3CCCCC3)CC2)ccc1Nc1nc(Nc2ccccc2S(=O)(=O)C(C)C)c2cn[nH]c2n1
84

* * *

# system: NTRK3 (human) (UniProt Q16288)
# experimental.protocol: KINOMEscan competition binding
# condition: compound 10.0 µM
Each entry below carries its reported kinase still bound, per cent of control.
# output: bare number, implied unit %

smiles_record=COc1cc(N2CCC(N3CCN(C)CC3)CC2)ccc1Nc1ncc(Cl)c(Nc2ccccc2S(=O)(=O)C(C)C)n1 system="NTRK3 (human) (UniProt Q16288)" quantitative_result=40
smiles_record=CCOc1cc(N2CCC(N3CCCCC3)CC2)ccc1Nc1nc(Nc2ccccc2S(=O)(=O)C(C)C)c2cn[nH]c2n1 system="NTRK3 (human) (UniProt Q16288)" quantitative_result=54
smiles_record=CCN1CCN(Cc2ccc(NC(=O)c3ccc(C)c(/C=C/c4cnc(Nc5cc(N6CCNCC6)nc(C)n5)cn4)c3)cc2C(F)(F)F)CC1 system="NTRK3 (human) (UniProt Q16288)" quantitative_result=1

Name the value of kinase still bound, per cent of control reported for CCN1CCN(Cc2ccc(NC(=O)c3ccc(C)c(Oc4ccnc5[nH]ccc45)c3)cc2C(F)(F)F)CC1 when tested on NTRK3 (human) (UniProt Q16288).
3.8

* * *

# system: STK36 (human) (UniProt Q9NRP7)
# Sequence (Q9NRP7 whole entry, looked up): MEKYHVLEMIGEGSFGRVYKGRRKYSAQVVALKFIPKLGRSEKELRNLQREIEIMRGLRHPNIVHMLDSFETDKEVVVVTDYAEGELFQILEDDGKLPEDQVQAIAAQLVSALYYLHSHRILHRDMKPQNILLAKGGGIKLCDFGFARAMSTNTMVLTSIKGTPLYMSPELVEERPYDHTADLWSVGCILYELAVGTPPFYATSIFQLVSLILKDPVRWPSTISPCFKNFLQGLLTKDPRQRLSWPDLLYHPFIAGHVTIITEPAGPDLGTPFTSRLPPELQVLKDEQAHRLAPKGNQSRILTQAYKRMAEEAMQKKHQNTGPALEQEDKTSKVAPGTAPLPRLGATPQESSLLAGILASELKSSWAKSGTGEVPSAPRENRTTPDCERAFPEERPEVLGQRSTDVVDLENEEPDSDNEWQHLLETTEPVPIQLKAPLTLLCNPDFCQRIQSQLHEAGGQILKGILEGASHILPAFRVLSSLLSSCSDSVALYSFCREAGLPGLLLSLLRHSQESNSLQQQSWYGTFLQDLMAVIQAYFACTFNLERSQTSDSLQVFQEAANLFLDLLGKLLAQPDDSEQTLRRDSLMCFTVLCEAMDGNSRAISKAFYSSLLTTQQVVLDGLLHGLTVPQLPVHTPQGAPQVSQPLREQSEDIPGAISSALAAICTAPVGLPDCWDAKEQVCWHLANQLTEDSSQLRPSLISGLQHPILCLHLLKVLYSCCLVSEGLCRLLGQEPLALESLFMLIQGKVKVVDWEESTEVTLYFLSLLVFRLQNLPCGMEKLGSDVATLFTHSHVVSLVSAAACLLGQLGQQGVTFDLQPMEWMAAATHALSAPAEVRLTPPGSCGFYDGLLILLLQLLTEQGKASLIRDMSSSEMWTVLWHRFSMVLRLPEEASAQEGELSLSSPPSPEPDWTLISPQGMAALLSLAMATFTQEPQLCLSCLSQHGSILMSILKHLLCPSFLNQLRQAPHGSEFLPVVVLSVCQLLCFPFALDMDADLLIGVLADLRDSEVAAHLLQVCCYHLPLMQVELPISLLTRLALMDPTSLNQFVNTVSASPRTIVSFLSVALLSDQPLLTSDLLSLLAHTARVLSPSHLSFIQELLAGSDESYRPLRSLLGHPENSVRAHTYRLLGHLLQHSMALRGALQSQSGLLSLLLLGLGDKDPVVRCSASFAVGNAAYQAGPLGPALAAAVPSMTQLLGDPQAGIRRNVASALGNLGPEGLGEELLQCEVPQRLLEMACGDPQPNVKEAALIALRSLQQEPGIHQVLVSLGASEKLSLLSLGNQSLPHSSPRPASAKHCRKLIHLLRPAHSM
# experimental.protocol: KINOMEscan competition binding
# condition: compound 10.0 µM
List of kinase still bound, per cent of control values.
Report only the number, with the unit % understood.

smiles_record=CCN1CCN(Cc2ccc(NC(=O)c3ccc(C)c(/C=C/c4cnc(Nc5cc(N6CCNCC6)nc(C)n5)cn4)c3)cc2C(F)(F)F)CC1 measure="kinase still bound, per cent of control" readout_unit=% quantitative_result=0.1
smiles_record=CCN1CCN(Cc2ccc(NC(=O)c3ccc(C)c(Oc4ccnc5[nH]ccc45)c3)cc2C(F)(F)F)CC1 measure="kinase still bound, per cent of control" readout_unit=% quantitative_result=0.2
smiles_record=CCOc1cc(N2CCC(N3CCCCC3)CC2)ccc1Nc1nc(Nc2ccccc2S(=O)(=O)C(C)C)c2cn[nH]c2n1 measure="kinase still bound, per cent of control" readout_unit=% quantitative_result=100

The record that follows has no kinase still bound, per cent of control shown yet.
Kindly indicate its recorded kinase still bound, per cent of control. Item: COc1cc(N2CCC(N3CCN(C)CC3)CC2)ccc1Nc1ncc(Cl)c(Nc2ccccc2S(=O)(=O)C(C)C)n1
5.8

* * *

Reported kinase still bound, per cent of control by item:
# system: INSR (human)
# experimental.protocol: KINOMEscan competition binding
# condition: compound 10.0 µM
The response must be a number in % with no trailing unit.

Some compounds with recorded kinase still bound, per cent of control:
smiles_record=CCN1CCN(Cc2ccc(NC(=O)c3ccc(C)c(Oc4ccnc5[nH]ccc45)c3)cc2C(F)(F)F)CC1 readout_unit=% quantitative_result=30
smiles_record=CCN1CCN(Cc2ccc(NC(=O)c3ccc(C)c(/C=C/c4cnc(Nc5cc(N6CCNCC6)nc(C)n5)cn4)c3)cc2C(F)(F)F)CC1 readout_unit=% quantitative_result=65

Let me know recorded kinase still bound, per cent of control for COc1cc(N2CCC(N3CCN(C)CC3)CC2)ccc1Nc1ncc(Cl)c(Nc2ccccc2S(=O)(=O)C(C)C)n1 , thanks.
0

Kindly indicate its recorded kinase still bound, per cent of control. Item: CCOc1cc(N2CCC(N3CCCCC3)CC2)ccc1Nc1nc(Nc2ccccc2S(=O)(=O)C(C)C)c2cn[nH]c2n1
0.3
